The values you see were collected from PubChem BioAssay (NCI).

Tested on: OVCAR-5 ovarian
Assay: NCI-60 one-dose screen, 48 h (100 = growth as untreated, 0 = no growth, -100 = all killed)
Conditions: 10 µM unless noted
The panel holds about 83,000 compounds, 20% with a hit somewhere; the sample as a whole holds those more often.
outcome.measure: growth (%)
Could you give me the number in %? Just the number is fine.

Previously resolved entries follow.
| structure.string | unit.info | growth |
| --- | --- | --- |
| Cc1nc2sc(C(=O)Nc3ccccc3)c(N)c2cc1C(=O)c1ccccc1 | % | 59 |
| O=C(CN1C(=O)CCC1=O)Nc1ncc(Cc2ccc(F)cc2)s1 | % | 97.3 |
| CCNc1cc(-c2cccc(OC(F)(F)F)c2)nc2ccc(N3CCCC3)cc12 | % | 27.9 |
| O=C(/C=C/c1cccs1)c1ccc(Cl)nc1 | % | 103 |
| C=CCc1c(O)c(C(=O)/C=C/c2ccc(Cl)cc2)c(OC)c2ccoc12 | % | 100 |

Now for the compound whose growth we want.
// query growth value for entry C[C@]12CC[C@@H]3c4ccc(O)c([N+](=O)[O-])c4CC[C@H]3[C@@H]1CCC2=O
92
